Assignment: determine reported Percent Effect for the given compounds.
- Test Name: In vitro enzyme assay to detect hydrolysis of chlorophenol red-beta-D-[…] directly proportional to the number of Toxoplasma stably expressing beta-galactosidase
- Format: functional, organism-based, Toxoplasma gondii
- Set-up: scale not given: in the data most compounds retested in dose-response had high values
- Condition Description: 50 µM
Screen size: about 85,000 compounds; about 440 (0.52%) showed an effect of 50% or more. Shown is part of a subset that was picked to be rich in strong results.
Answers are plain numbers, in %.

{"columns": ["Compound", "Quantity Name", "Unit Label", "Experimental Result"],
 "data": [
  ["CCc1noc(CC)c1CNC(=O)Nc1ncnn1C", "Percent Effect", "%", 67.97],
  ["COc1c(C)cnc(CNC(=O)NC2CC2)c1C", "Percent Effect", "%", 8.679],
  ["C1CC(OC2CCOC2)CCN1 (stereo not drawn)", "Percent Effect", "%", 3.071],
  ["Cc1c(S(=O)(=O)Nc2cccc(F)c2)cnn1C", "Percent Effect", "%", -8.725],
  ["CC(C)n1cnnc1CN1CCN(c2nc[nH]n2)CC1", "Percent Effect", "%", 14.64]
]}

Give Percent Effect for each of the items listed below.
1. CSCCCNC(=O)Nc1ncnn1C
2. O=C(Cc1cccs1)N1CCNCC1
3. CCNC(=O)N1CCC(NC(=O)c2ccc(C)o2)CC1

Result block:
-6.612
1.272
-1.852
